# Study Target: Ddn (deazaflavin-dependent nitroreductase, Rv3547) (Mycobacterium tuberculosis, UniProt P9WP15)
# Sequence (P9WP15 whole entry): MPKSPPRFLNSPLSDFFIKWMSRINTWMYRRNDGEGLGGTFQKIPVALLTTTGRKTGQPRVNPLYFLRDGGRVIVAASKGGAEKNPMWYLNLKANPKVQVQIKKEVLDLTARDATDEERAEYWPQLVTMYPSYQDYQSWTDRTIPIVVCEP
# Experiment Notes: cocrystal structures (Holo-1 […] Å, Holo-2 […] Å); Trp fluorescence quenching Kd; HSQC NMR
# Format: binding
# Design: […]; full-length Ddn / MBP-Ddn fusion (Kd)
pKd: −log10 of the molar value.
Measured Metric: pKd

[[record]]
structure_smiles_string = "C[C@H](OP(=O)(O)OC[C@@H](O)[C@@H](O)[C@@H](O)Cn1c2nc(=O)[nH]c(=O)c-2cc2ccc(O)cc21)C(=O)N[C@@H](CCC(=O)N[C@@H](CCC(=O)O)C(=O)O)C(=O)O"
reported_result = 6.00

